# Tested on: CCRIS mutagenicity, Ames/micronucleus/aberration tests
# Protocol description: CCRIS mutagenicity studies
# Assay context: Test System: AMES SALMONELLA TYPHIMURIUM; Strain/Indicator: TA104; Metabolic Activation: RAT, LIVER, S-9, AROCLOR 1254; Method: STANDARD PLATE
Calls of active or inactive are those of the source. How the calls were made is not given here.
Valid outcomes are listed here; reply with one: active, inactive

*Q* # fetch the recorded call for BrCCBr here
*A* inactive

*Q* // return assay outcome for ClC=C(Cl)Cl
*A* inactive

*Q* Call for entry CC(Cl)(Cl)Cl :
*A* active

*Q* For Cc1cc(=O)n(-c2ccccc2)n1C , which call appears in the assay record?
*A* inactive

*Q* Test call for this molecule, please: CCC(=O)N(O)c1ccc(Cl)c(Cl)c1
*A* inactive

*Q* Recorded call for CCBr ?
*A* active

*Q* So what was the verdict on CC/C=C/C=C/C=C/C=C/C=C/OC[C@@H](O)CO in this test?
*A* active

*Q* For ClCCCCl , which call appears in the assay record?
*A* inactive

*Q* Tell me the assay call for CC1=CC(=C(C#N)C#N)C=C(C=Cc2ccc(N(C)C)cc2)O1 please.
*A* active

Cited source for all entries: PubChem BioAssay AID1259407
